Reference source for all entries: ChEMBL document CHEMBL3774369

- method-description: Percentage unbound in human plasma by equilibrium dialysis method
- Type: ADME, cell-free

# smiles-notation, fraction unbound
measured = [
    ("C[C@@H]1Cc2cc(O)ccc2[C@@H](c2c(F)cc(/C=C/C(=O)O)cc2F)N1CC(C)(C)F", 0.023),
    ("CC(C)CN1[C@H](c2ccc(/C=C/C(=O)O)cc2)c2ccc(O)cc2CC1(C)C", 0.035),
    ("CC(C)CN1[C@H](c2c(F)cc(/C=C/C(=O)O)cc2F)c2ccc(O)cc2CC1(C)C", 0.005),
    ("Cc1cc2c(cc1O)CCN(CC(C)C)[C@@H]2c1ccc(/C=C/C(=O)O)cc1", 0.091),
    ("C[C@H](CF)CN1[C@H](c2ccc(/C=C/C(=O)O)cc2)c2ccc(O)cc2CC1(C)C", 0.01),
]

---

- method-description: Percentage unbound in human plasma by equilibrium dialysis method
- Type: ADME, cell-free
Everything with fraction unbound lower than 0.02 is False; everything else, including exactly 0.02, is True.

# compound, assigned-class
measured = [
    ("COC[C@H](C)CN1[C@H](c2c(F)cc(/C=C/C(=O)O)cc2F)c2ccc(O)cc2CC1(C)C", "False"),
    ("CC(C)CN1[C@H](c2ccc(/C=C/C(=O)O)cc2)c2ccccc2C[C@H]1C", "True"),
    ("C[C@@H]1Cc2cc(O)ccc2[C@@H](c2ccc(/C=C/C(=O)O)cc2)N1c1ccc(OC(F)(F)F)cc1", "False"),
    ("C[C@H](CF)CN1[C@H](c2c(F)cc(/C=C/C(=O)O)cc2F)c2ccc(O)cc2C[C@H]1C", "False"),
    ("CC(C)CN1CCc2cc(O)ccc2[C@H]1c1ccc(/C=C/C(=O)O)cc1", "True"),
    ("CC(C)(F)CN1[C@H](c2ccc(/C=C/C(=O)O)cc2)c2ccc(O)cc2CC1(C)C", "False"),
    ("O=C(O)/C=C/c1ccc(C2c3ccc(O)cc3CCN2c2ccccc2)cc1 (centres undefined)", "False"),
    ("C[C@H](CF)CN1[C@H](c2ccc(/C=C/C(=O)O)cc2)c2ccc(O)cc2C[C@H]1C", "True"),
    ("CC(C)CN1[C@H](C)Cc2cc(O)ccc2[C@@]1(C)c1ccc(/C=C/C(=O)O)cc1", "False"),
    ("COC[C@H](C)CN1[C@H](c2c(F)cc(/C=C/C(=O)O)cc2F)c2ccc(O)cc2C[C@H]1C", "True"),
    ("Cc1c(O)ccc2c1CCN(CC(C)C)[C@@H]2c1ccc(/C=C/C(=O)O)cc1", "True"),
    ("O=C(O)/C=C/c1ccc(C2c3ccc(O)cc3CCN2Cc2ccccc2)cc1 (centres undefined)", "False"),
    ("CC(C)CN1CCc2cc(O)ccc2[C@@H]1c1ccc(/C=C/C(=O)O)cc1", "False"),
    ("O=C(O)/C=C/c1ccc(C2c3ccc(O)cc3CCN2c2ccc(OC(F)(F)F)cc2)cc1 (centres undefined)", "False"),
    ("CC(C)CN1[C@H](c2ccc(/C=C/C(=O)O)cc2)c2ccc(O)cc2C[C@H]1C", "True"),
    ("CC(C)CN1CCc2cc(O)ccc2[C@@]1(C)c1ccc(/C=C/C(=O)O)cc1", "False"),
    ("COC[C@H](C)CN1[C@H](c2ccc(/C=C/C(=O)O)cc2)c2ccc(O)cc2C[C@H]1C", "True"),
    ("C[C@H](CF)CN1[C@H](c2c(F)cc(/C=C/C(=O)O)cc2F)c2ccc(O)cc2CC1(C)C", "False"),
]

---

- study-system: B2 bradykinin receptor (Homo sapiens, UniProt P30411)
- Sequence (P30411 whole entry): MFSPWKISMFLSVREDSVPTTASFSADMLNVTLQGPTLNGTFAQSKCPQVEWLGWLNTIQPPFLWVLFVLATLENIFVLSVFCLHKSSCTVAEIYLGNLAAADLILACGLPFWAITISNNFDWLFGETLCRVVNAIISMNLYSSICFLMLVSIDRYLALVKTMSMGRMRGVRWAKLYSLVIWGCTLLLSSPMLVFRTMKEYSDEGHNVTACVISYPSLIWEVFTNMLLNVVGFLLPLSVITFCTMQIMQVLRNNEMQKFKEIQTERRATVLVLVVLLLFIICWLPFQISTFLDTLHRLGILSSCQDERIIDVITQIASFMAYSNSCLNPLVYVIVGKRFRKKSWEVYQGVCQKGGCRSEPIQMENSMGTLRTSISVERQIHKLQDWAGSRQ
- method-description: Inhibition of recombinant human bradykinin receptor 2 expressed in CHO cells
pIC50: −log10 of the molar value.

# smiles-notation, pIC50
rows = [
    ("CC(C)CN1[C@H](c2ccc(/C=C/C(=O)O)cc2)c2ccc(O)cc2C[C@H]1C", 4.70),
]

---

- method-description: Intrinsic clearance in human hepatocytes assessed per 10^6 cells
- Type: ADME, cell-based, Hepatocyte
- stated-conditions: read-out: CLH
As shown below, each of these compounds has a reported log10 of hepatocyte CLint value.
measurement-type: log10 of hepatocyte CLint (log10 of the value in µL/min/1e6 cells)

# compound, assay-value
records = [
    ("CC(C)CN1[C@H](c2ccc(/C=C/C(=O)O)cc2)c2ccccc2C[C@H]1C", 1.65),
    ("CC(C)(F)CN1[C@H](c2ccc(/C=C/C(=O)O)cc2)c2ccc(O)cc2CC1(C)C", 1.28),
    ("O=C(O)/C=C/c1ccc(C2c3ccc(O)cc3CCN2c2ccc(OC(F)(F)F)cc2)cc1 (stereo not given)", 1.04),
    ("O=C(O)/C=C/c1ccc(C2c3ccc(O)cc3CCN2c2ccccc2)cc1 (stereo not given)", 1.83),
    ("O=C(O)/C=C/c1ccc(C2c3ccc(O)cc3CCN2Cc2ccccc2)cc1 (stereo not given)", 2.18),
]

---

- method-description: Intrinsic clearance in Han Wistar rat hepatocytes assessed per 10^6 cells
- Format: ADME, cell-based, Hepatocyte
- stated-conditions: read-out: CLH

# smiles-notation, hepatocyte CLint / µL/min/1e6 cells
rows = [
    ("CC(C)CN1CCc2cc(O)ccc2[C@@H]1c1ccc(/C=C/C(=O)O)cc1", 49),
    ("Cc1c(O)ccc2c1CCN(CC(C)C)[C@@H]2c1ccc(/C=C/C(=O)O)cc1", 32),
    ("COC[C@H](C)CN1[C@H](c2c(F)cc(/C=C/C(=O)O)cc2F)c2ccc(O)cc2C[C@H]1C", 110),
    ("C[C@H](CF)CN1[C@H](c2c(F)cc(/C=C/C(=O)O)cc2F)c2ccc(O)cc2CC1(C)C", 68),
    ("C[C@H](CF)CN1[C@H](c2c(F)cc(/C=C/C(=O)O)cc2F)c2ccc(O)cc2C[C@H]1C", 94),
]

---

- study-system: Adenosine receptor A1 (Homo sapiens)
- Sequence (P30542 whole entry): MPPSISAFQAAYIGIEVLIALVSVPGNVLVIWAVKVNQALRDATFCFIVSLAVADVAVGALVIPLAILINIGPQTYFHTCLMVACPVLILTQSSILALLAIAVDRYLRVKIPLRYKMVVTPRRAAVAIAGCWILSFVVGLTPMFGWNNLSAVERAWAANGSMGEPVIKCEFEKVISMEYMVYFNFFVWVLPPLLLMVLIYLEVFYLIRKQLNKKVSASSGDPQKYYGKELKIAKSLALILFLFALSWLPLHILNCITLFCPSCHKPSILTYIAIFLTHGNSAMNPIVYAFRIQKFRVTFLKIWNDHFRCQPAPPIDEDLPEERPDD
- method-description: Inhibition of recombinant human adenosine receptor A1 expressed in CHO cells
pIC50: −log10 of the molar value.

# smiles-notation, pIC50
rows = [
    ("CC(C)CN1[C@H](c2ccc(/C=C/C(=O)O)cc2)c2ccc(O)cc2C[C@H]1C", 4.54),
]

---

- method-description: physchem
- stated-conditions: buffer, pH 7.4
measurement-type: logD

# compound, assay-value
rows = [
    ("CC(C)CN1[C@H](c2ccc(/C=C/C(=O)O)cc2)c2ccc(O)cc2C[C@H]1C", 1.7),
    ("CC(C)CN1CCc2cc(O)ccc2[C@@]1(C)c1ccc(/C=C/C(=O)O)cc1", 2.2),
    ("C[C@@H]1Cc2cc(O)ccc2[C@@H](c2ccc(/C=C/C(=O)O)cc2)N1c1ccc(OC(F)(F)F)cc1", 4.2),
    ("C[C@@H]1Cc2cc(O)ccc2[C@@H](c2c(F)cc(/C=C/C(=O)O)cc2F)N1CC(C)(C)F", 2.1),
    ("C[C@H](CF)CN1[C@H](c2ccc(/C=C/C(=O)O)cc2)c2ccc(O)cc2CC1(C)C", 1.8),
    ("CC(C)CN1CCc2cc(O)ccc2[C@H]1c1ccc(/C=C/C(=O)O)cc1", 1.3),
    ("C[C@H](CF)CN1[C@H](c2c(F)cc(/C=C/C(=O)O)cc2F)c2ccc(O)cc2CC1(C)C", 3.1),
    ("O=C(O)/C=C/c1ccc(C2c3ccc(O)cc3CCN2c2ccccc2)cc1 (centres undefined)", 2.4),
    ("Cc1c(O)ccc2c1CCN(CC(C)C)[C@@H]2c1ccc(/C=C/C(=O)O)cc1", 1.6),
    ("C[C@H](CF)CN1[C@H](c2c(F)cc(/C=C/C(=O)O)cc2F)c2ccc(O)cc2C[C@H]1C", 2.5),
    ("Cc1cc2c(cc1O)CCN(CC(C)C)[C@@H]2c1ccc(/C=C/C(=O)O)cc1", 1.8),
    ("COc1ccc2c(c1)C[C@@H](C)N(CC(C)C)[C@@H]2c1ccc(/C=C/C(=O)O)cc1", 2.3),
    ("CC(C)CN1[C@H](c2ccc(/C=C/C(=O)O)cc2)c2ccc(O)cc2CC1(C)C", 1.5),
    ("CC(C)CN1[C@H](C)Cc2cc(O)ccc2[C@@]1(C)c1ccc(/C=C/C(=O)O)cc1", 2.7),
    ("CC(C)(F)CN1[C@H](c2ccc(/C=C/C(=O)O)cc2)c2ccc(O)cc2CC1(C)C", 2.3),
    ("O=C(O)/C=C/c1ccc(C2c3ccc(O)cc3CCN2Cc2ccccc2)cc1 (centres undefined)", 2.2),
    ("CC(C)CN1CCc2cc(O)ccc2[C@@H]1c1ccc(/C=C/C(=O)O)cc1", 1.4),
    ("CC(C)CN1[C@H](c2ccc(/C=C/C(=O)O)cc2)c2ccccc2C[C@H]1C", 2.5),
    ("COC[C@H](C)CN1[C@H](c2c(F)cc(/C=C/C(=O)O)cc2F)c2ccc(O)cc2C[C@H]1C", 1.6),
]
